System: K98450-129-R-PDC complex spheroid growth, percent test/control
Assay: Anticancer human tumor K98450-129-R-PDC patient-derived colon adenocarcinoma cell line growth inhibition [RAS]
Details: second compound 1 µM; first compound 0.1 µM; stronger effect = lower value
From the text: RAS pathway inhibitors in Combinations in Complex Spheroids A high-throughput screen of multi-cell type tumor spheroids was designed to identify active combinations of RAS pathway inhibitors and targeted small molecules. Complex spheroids include a stromal component modeled by human endothelial cells (HUVEC) and fibroblasts modeled by human mesenchymal stem cells (MSCs). […] Compounds. […] If the clinical Cmax for an agent had not been determined, the highest concentration tested was 10 microM. […]
Overview of recorded viability, T/C for various compounds
ASSAY_READOUT: viability, T/C (%)

{"columns": ["COMPOUND", "ASSAY_READOUT", "UOM", "QUANTITATIVE_RESULT"],
 "data": [
  ["C=CC(=O)Nc1cc(Nc2nccc(-c3cn(C)c4ccccc34)n2)c(OC)cc1N(C)CCN(C)C + C=CC(=O)N1CCN(c2nc(OCC3CCCN3C)nc3c(F)c(-c4nc(N)cc(C)c4C(F)(F)F)c(Cl)cc23)C(C)C1", "viability, T/C", "%", 13.8],
  ["Cc1nc(N2CCC3(CC2)COC(C)C3N)c(CO)nc1Sc1ccnc(N)c1Cl (stereo not drawn) + C#Cc1c(F)ccc2cc(O)cc(-c3ncc4c(N5CC6CCC(C5)N6)nc(OCC56CCCN5CC(F)C6)nc4c3F)c12", "viability, T/C", "%", 98.9],
  ["CC1(O)CCCC1n1c(=O)c(C(F)F)cc2cnc(NC3CCN(S(C)(=O)=O)CC3)nc21 (stereo not drawn) + C#Cc1c(F)ccc2cc(O)cc(-c3ncc4c(N5CC6CCC(C5)N6)nc(OCC56CCCN5CC(F)C6)nc4c3F)c12", "viability, T/C", "%", 103]
]}

* * *

tested on: K98450-129-R-PDC complex spheroid growth, percent test/control; experiment: Anticancer human tumor K98450-129-R-PDC cell line growth inhibition [RAS]; details: second compound 0.1 µM; first compound 10 µM; stronger effect = lower value;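 further: spheroids exposed to agents for seven days before the viability readout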;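 on viability, T/C: luminescence used as a proxy for viable cell amount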
ASSAY_READOUT: viability, T/C (%)

{"columns": ["COMPOUND", "ASSAY_READOUT", "QUANTITATIVE_RESULT"],
 "data": [
  ["CC(=O)OC12COC1CC(O)C1(C)C(=O)C(O)C3=C(C)C(OC(=O)C(O)C(NC(=O)OC(C)(C)C)c4ccccc4)CC(O)(C(OC(=O)c4ccccc4)C21)C3(C)C (stereo not given) + C=CC(=O)N1CCN(c2nc(OCC3CCCN3C)nc3c(F)c(-c4nc(N)cc(C)c4C(F)(F)F)c(Cl)cc23)C(C)C1", "viability, T/C", 14.3],
  ["CCC(CC)c1cc(NC2CCC(N)C2)n2nccc2n1 (stereo not given) + C#Cc1c(F)ccc2cc(O)cc(-c3ncc4c(N5CC6CCC(C5)N6)nc(OCC56CCCN5CC(F)C6)nc4c3F)c12", "viability, T/C", 16.9],
  ["CCC(CC)c1cc(NC2CCC(N)C2)n2nccc2n1 (stereo not given) + C=CC(=O)N1CCN(c2nc(OCC3CCCN3C)nc3c(F)c(-c4nc(N)cc(C)c4C(F)(F)F)c(Cl)cc23)C(C)C1", "viability, T/C", 8.77],
  ["C[C@@H](NC(=O)c1ncnc(N)c1Cl)c1ncc(C(=O)Nc2cc(C(F)(F)F)c(Cl)cn2)s1 + C=CC(=O)N1CCN(c2nc(OCC3CCCN3C)nc3c(F)c(-c4nc(N)cc(C)c4C(F)(F)F)c(Cl)cc23)C(C)C1", "viability, T/C", 56.3],
  ["CC(C)NCC(C(=O)N1CCN(c2ncnc3c2C(C)CC3O)CC1)c1ccc(Cl)cc1 (stereo not given) + C#Cc1c(F)ccc2cc(O)cc(-c3ncc4c(N5CC6CCC(C5)N6)nc(OCC56CCCN5CC(F)C6)nc4c3F)c12", "viability, T/C", 103],
  ["NC1c2ccccc2OC12CCN(c1cnc3c(N4CCCc5ncccc54)n[nH]c3n1)CC2 (stereo not given) + C=CC(=O)N1CCN(c2nc(OCC3CCCN3C)nc3c(F)c(-c4nc(N)cc(C)c4C(F)(F)F)c(Cl)cc23)C(C)C1", "viability, T/C", 4.82],
  ["CC1(O)CCCC1n1c(=O)c(C(F)F)cc2cnc(NC3CCN(S(C)(=O)=O)CC3)nc21 (stereo not given) + C#Cc1c(F)ccc2cc(O)cc(-c3ncc4c(N5CC6CCC(C5)N6)nc(OCC56CCCN5CC(F)C6)nc4c3F)c12", "viability, T/C", 60.5],
  ["C[C@@H](NC(=O)c1ncnc(N)c1Cl)c1ncc(C(=O)Nc2cc(C(F)(F)F)c(Cl)cn2)s1 + C#Cc1c(F)ccc2cc(O)cc(-c3ncc4c(N5CC6CCC(C5)N6)nc(OCC56CCCN5CC(F)C6)nc4c3F)c12", "viability, T/C", 106],
  ["Cc1nc(N2CCC3(CC2)COC(C)C3N)c(CO)nc1Sc1ccnc(N)c1Cl (stereo not given) + C=CC(=O)N1CCN(c2nc(OCC3CCCN3C)nc3c(F)c(-c4nc(N)cc(C)c4C(F)(F)F)c(Cl)cc23)C(C)C1", "viability, T/C", 7.55],
  ["Cc1nc(N2CCC3(CC2)COC(C)C3N)c(CO)nc1Sc1ccnc(N)c1Cl (stereo not given) + C#Cc1c(F)ccc2cc(O)cc(-c3ncc4c(N5CC6CCC(C5)N6)nc(OCC56CCCN5CC(F)C6)nc4c3F)c12", "viability, T/C", 21.5]
]}

* * *

Overview of recorded pIC50 for various compounds
test system: K98450-129-R-PDC complex spheroid growth, percent test/control; assay: Anticancer human tumor K98450-129-R-PDC cell line growth inhibition [RAS]; details: curve of first compound; second compound 0.000949 µM;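 further: spheroids exposed to agents for seven days before the viability readout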
pIC50: −log10 of the molar value.
ASSAY_READOUT: pIC50

{"columns": ["COMPOUND", "ASSAY_READOUT", "RESULT"],
 "data": [
  ["CC1(C)CCC(Nc2ncc(C(F)(F)F)c(-c3c[nH]c4c(P(C)(C)=O)c(C#N)ccc34)n2)CN1 (stereo not drawn) + CCn1c(-c2cccnc2C(C)OC)c2c3cc(ccc31)N1CCOC(CC(NC(=O)C(C(C)C)N(C)C(=O)C3(F)CCN(C(=O)C#CC(C)(C)N(C)C)CC3)C(=O)N3CCCC(N3)C(=O)OCC(C)(C)C2)C1", "pIC50", "< 6.52"],
  ["CC1(O)CCCC1n1c(=O)c(C(F)F)cc2cnc(NC3CCN(S(C)(=O)=O)CC3)nc21 (stereo not drawn) + CCn1c(-c2cc(N3CCN(C)CC3)cnc2C(C)OC)c2c3cc(ccc31)-c1csc(n1)CC(NC(=O)C1CC1C)C(=O)N1CCCC(N1)C(=O)OCC(C)(C)C2", "pIC50", "< 5.00"],
  ["CC(C)NCC(C(=O)N1CCN(c2ncnc3c2C(C)CC3O)CC1)c1ccc(Cl)cc1 (stereo not drawn) + CCn1c(-c2cccnc2C(C)OC)c2c3cc(ccc31)N1CCOC(CC(NC(=O)C(C(C)C)N(C)C(=O)C3(F)CCN(C(=O)C#CC(C)(C)N(C)C)CC3)C(=O)N3CCCC(N3)C(=O)OCC(C)(C)C2)C1", "pIC50", "< 5.00"]
]}

* * *

test system: K98450-129-R-PDC complex spheroid growth, percent test/control; experiment: Anticancer human tumor K98450-129-R-PDC cell line growth inhibition [RAS]; conditions: second compound 1 µM; first compound 0.0316 µM; stronger effect = lower value;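 further: spheroids exposed to agents for seven days before the viability readout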;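 on viability, T/C: luminescence used as a proxy for viable cell amount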

{"columns": ["COMPOUND", "UOM", "viability, T/C"],
 "data": [
  ["CC(Nc1ccc2c(c1)OCCn1cc(N3C(=O)OCC3C(F)F)nc1-2)C(N)=O (stereo not drawn) + C#Cc1c(F)ccc2cc(O)cc(-c3ncc4c(N5CC6CCC(C5)N6)nc(OCC56CCCN5CC(F)C6)nc4c3F)c12", "%", 102],
  ["Cc1nc(N2CCC3(CC2)COC(C)C3N)c(CO)nc1Sc1ccnc(N)c1Cl (stereo not drawn) + C=CC(=O)N1CCN(c2nc(OCC3CCCN3C)nc3c(F)c(-c4nc(N)cc(C)c4C(F)(F)F)c(Cl)cc23)C(C)C1", "%", 21.6],
  ["C[C@@H](NC(=O)c1ncnc(N)c1Cl)c1ncc(C(=O)Nc2cc(C(F)(F)F)c(Cl)cn2)s1 + C#Cc1c(F)ccc2cc(O)cc(-c3ncc4c(N5CC6CCC(C5)N6)nc(OCC56CCCN5CC(F)C6)nc4c3F)c12", "%", 114]
]}

* * *

system: K98450-129-R-PDC complex spheroid growth, percent test/control; test: Anticancer human tumor K98450-129-R-PDC cell line growth inhibition [RAS]; conditions: second compound 0.0316 µM; first compound 10 µM; stronger effect = lower value;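 further: spheroids exposed to agents for seven days before the viability readout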;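 on viability, T/C: luminescence used as a proxy for viable cell amount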
Quick rule for you: viability, T/C under 9% gets fulfilled, anything else gets not fulfilled.

{"columns": ["COMPOUND", "EXPERIMENTAL_TARGET", "CLASS_ASSIGNMENT"],
 "data": [
  ["NC1c2ccccc2OC12CCN(c1cnc3c(N4CCCc5ncccc54)n[nH]c3n1)CC2 (stereo unspecified) + C=CC(=O)N1CCN(c2nc(OCC3CCCN3C)nc3c(F)c(-c4nc(N)cc(C)c4C(F)(F)F)c(Cl)cc23)C(C)C1", "K98450-129-R-PDC complex spheroid growth, percent test/control", "fulfilled"],
  ["NC1c2ccccc2OC12CCN(c1cnc3c(N4CCCc5ncccc54)n[nH]c3n1)CC2 (stereo unspecified) + C#Cc1c(F)ccc2cc(O)cc(-c3ncc4c(N5CC6CCC(C5)N6)nc(OCC56CCCN5CC(F)C6)nc4c3F)c12", "K98450-129-R-PDC complex spheroid growth, percent test/control", "not fulfilled"],
  ["CC(Nc1ccc2c(c1)OCCn1cc(N3C(=O)OCC3C(F)F)nc1-2)C(N)=O (stereo unspecified) + C#Cc1c(F)ccc2cc(O)cc(-c3ncc4c(N5CC6CCC(C5)N6)nc(OCC56CCCN5CC(F)C6)nc4c3F)c12", "K98450-129-R-PDC complex spheroid growth, percent test/control", "not fulfilled"],
  ["CC(C)NCC(C(=O)N1CCN(c2ncnc3c2C(C)CC3O)CC1)c1ccc(Cl)cc1 (stereo unspecified) + C=CC(=O)N1CCN(c2nc(OCC3CCCN3C)nc3c(F)c(-c4nc(N)cc(C)c4C(F)(F)F)c(Cl)cc23)C(C)C1", "K98450-129-R-PDC complex spheroid growth, percent test/control", "not fulfilled"],
  ["Cc1nc(N2CCC3(CC2)COC(C)C3N)c(CO)nc1Sc1ccnc(N)c1Cl (stereo unspecified) + C=CC(=O)N1CCN(c2nc(OCC3CCCN3C)nc3c(F)c(-c4nc(N)cc(C)c4C(F)(F)F)c(Cl)cc23)C(C)C1", "K98450-129-R-PDC complex spheroid growth, percent test/control", "fulfilled"]
]}
